Would you mind telling me the reported cell viability of each entry?
# System: WHIM30 (cells of a triple-negative basal-like breast cancer xenograft)
# Assay Name: cell viability (% of vehicle); higher = less cytotoxic
# Test Settings: 10 µM; 72 h
// return a plain number; no unit text

Challenge: Item C#CCC(Cc1cnc2nc(N)nc(N)c2n1)c1ccc(C(=O)NC(CCC(=O)O)C(=O)O)cc1 (centres undefined) [Pralatrexate] has what recorded cell viability?
Response given: 117

Challenge: Could you do the same for CNC(=O)c1cc(Oc2ccc(NC(=O)Nc3ccc(Cl)c(C(F)(F)F)c3)c(F)c2)ccn1 [Regorafenib] , please?
Response given: 44.9

Challenge: Could you do the same for CCCNC1CCc2nc(N)sc2C1 (centres undefined) [Pramipexole] , please?
Response given: 100

Challenge: Could you do the same for `CC1(COc2ccc3c(c2)ncn3-c2ccc3cccc(N4CCC(N)CC4)c3n2)COC1` , please?
Response given: 60.3

====

# System: UCD52 (cells of a triple-negative basal-like breast cancer xenograft)
# Assay Name: cell viability of combination (% of vehicle); higher = less cytotoxic
# Test Settings: 1 µM; 72 h; partner dose: 10 nM
Endpoint Label: cell viability of combination

Challenge: Item CN(C)CCOc1ccc(C(=C(CCCl)c2ccccc2)c2ccccc2)cc1.O=C(O)CC(O)(CC(=O)O)C(=O)O [Toremifene Citrate] + CC(C)C[C@H](NC(=O)[C@H](CCc1ccccc1)NC(=O)CN1CCOCC1)C(=O)N[C@@H](Cc1ccccc1)C(=O)N[C@@H](CC(C)C)C(=O)[C@@]1(C)CO1 [Carfilzomib] has what recorded cell viability of combination?
Response given: 70.2

Challenge: Could you do the same for COc1ccc2cc1Oc1ccc(cc1)CC1c3c(cc4c(c3Oc3cc5c(cc3OC)CCN(C)C5C2)OCO4)CCN1C (stereo not drawn) [Cepharanthine] + CC(C)C[C@H](NC(=O)[C@H](CCc1ccccc1)NC(=O)CN1CCOCC1)C(=O)N[C@@H](Cc1ccccc1)C(=O)N[C@@H](CC(C)C)C(=O)[C@@]1(C)CO1 [Carfilzomib] , please?
Response given: 45.8

Challenge: Could you do the same for CC1(C)Cc2c(-c3ccccc3)c(-c3ccc(Cl)cc3)c(CC(=O)O)n2C1 [Licofelone] + CC(C)C[C@H](NC(=O)[C@H](CCc1ccccc1)NC(=O)CN1CCOCC1)C(=O)N[C@@H](Cc1ccccc1)C(=O)N[C@@H](CC(C)C)C(=O)[C@@]1(C)CO1 [Carfilzomib] , please?
Response given: 64.7

====

# System: HCI16 (cells of a triple-negative basal-like breast cancer xenograft)
# Assay Name: cell viability (% of vehicle); higher = less cytotoxic
# Test Settings: 10 µM; 72 h
So basically, if cell viability comes in under 100 it's yes, and if it's 100 or more it's no.

Challenge: Is cell viability strictly under 100 for the entry CC1(O)CC(c2nc(-c3ccc4ccc(-c5ccccc5)nc4c3)c3c(N)nccn23)C1 (stereo not drawn) ?
Response given: no

Challenge: Could you do the same for C[C@H](C(=O)O)c1ccc(-c2ccccc2)c(F)c1 [(S)-Flurbiprofen] , please?
Response given: no

Challenge: Could you do the same for CCCC1CC(C(=O)NC(C(C)Cl)C2OC(SC)C(O)C(O)C2O)N(C)C1.Cl (stereo not drawn) [Clindamycin HCl] , please?
Response given: no

Challenge: Could you do the same for `Clc1ccccc1C(c1ccccc1)(c1ccccc1)n1ccnc1` , please?
Response given: yes

Challenge: Could you do the same for COc1cc2nc(N(C)CCCNC(=O)C3CCCO3)nc(N)c2cc1OC.Cl (stereo not drawn) [Alfuzosin HCl] , please?
Response given: no
